biological target: EGFR Del19/C797S (Homo sapiens, UniProt P00533, C797S/DEL746-750); assay: Biochemical EGFR kinase inhibition assay (Lance Ultra TR-FRET), double mutant del19/C797S; conditions: IC50 Del19/C797S (nM), 100 μM ATP
Sequence (P00533 with tags, fused parts or gaps DEL746-750/C797S): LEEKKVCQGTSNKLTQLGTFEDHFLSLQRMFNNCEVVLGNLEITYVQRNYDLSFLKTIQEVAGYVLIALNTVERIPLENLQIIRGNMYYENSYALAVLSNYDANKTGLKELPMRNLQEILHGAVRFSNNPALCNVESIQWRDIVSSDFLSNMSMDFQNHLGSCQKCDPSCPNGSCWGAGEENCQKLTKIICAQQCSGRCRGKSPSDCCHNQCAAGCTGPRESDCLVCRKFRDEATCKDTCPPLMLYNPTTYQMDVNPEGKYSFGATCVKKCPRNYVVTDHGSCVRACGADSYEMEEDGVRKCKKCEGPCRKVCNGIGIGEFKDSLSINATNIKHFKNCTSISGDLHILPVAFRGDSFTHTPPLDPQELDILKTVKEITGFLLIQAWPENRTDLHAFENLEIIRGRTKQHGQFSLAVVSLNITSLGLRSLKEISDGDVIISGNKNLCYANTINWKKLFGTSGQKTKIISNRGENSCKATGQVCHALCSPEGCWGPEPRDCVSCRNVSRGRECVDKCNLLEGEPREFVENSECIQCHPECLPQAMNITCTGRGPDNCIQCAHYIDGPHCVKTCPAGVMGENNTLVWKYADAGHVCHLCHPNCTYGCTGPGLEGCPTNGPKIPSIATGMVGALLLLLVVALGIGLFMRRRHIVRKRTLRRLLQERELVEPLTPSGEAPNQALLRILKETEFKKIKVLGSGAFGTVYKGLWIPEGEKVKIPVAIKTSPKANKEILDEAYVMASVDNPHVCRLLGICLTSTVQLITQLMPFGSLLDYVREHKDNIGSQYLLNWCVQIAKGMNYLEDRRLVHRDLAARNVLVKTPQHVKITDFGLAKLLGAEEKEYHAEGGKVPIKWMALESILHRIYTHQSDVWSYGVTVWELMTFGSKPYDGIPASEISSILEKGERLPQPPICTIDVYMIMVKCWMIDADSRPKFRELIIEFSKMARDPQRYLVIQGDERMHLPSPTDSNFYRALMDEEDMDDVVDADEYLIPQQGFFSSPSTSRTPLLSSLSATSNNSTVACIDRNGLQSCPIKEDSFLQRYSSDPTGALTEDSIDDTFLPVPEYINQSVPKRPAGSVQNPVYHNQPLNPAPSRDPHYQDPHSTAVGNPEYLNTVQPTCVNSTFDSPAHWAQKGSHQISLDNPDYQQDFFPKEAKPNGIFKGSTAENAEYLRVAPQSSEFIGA
Measurement Kind: IC50 (nM)

// below: answered compounds
Cn1cc(C#Cc2cnc(Nc3ccnc(-c4cnn(S(=O)(=O)C5CC5)c4)n3)cc2N2CCC(NCCC(F)(F)F)CC2)cn1 = 6.9
CC1(CO)CCN(c2cc(Nc3ccnc(-c4cnn(S(=O)(=O)C5CC5)c4)n3)ncc2C#CC2CCCCC2)CC1 = 39.9
CC1(O)CCC(CNc2cc(Nc3ccnc(-c4cnn(S(=O)(=O)C5CC5)c4)n3)ncc2C#CC2CCCO2)CC1 (stereo not drawn) = 34.6
CC1(CO)CCN(c2cc(Nc3ccnc(-c4cnn(S(=O)(=O)C5CC5)c4)n3)ncc2C#Cc2ccc(C(=O)N3CCOCC3)cc2)CC1 = 1.3

(1) COC1(C)CCN(c2cc(Nc3ccnc(-c4cnn(S(=O)(=O)C5CC5)c4)n3)ncc2C#Cc2cccnc2)CC1
(2) O=S(=O)(C1CC1)n1cc(-c2nccc(Nc3cc(N[C@H]4CC[C@@H](CO)CC4)c(C#Cc4cnn(C(F)(F)F)c4)cn3)n2)cn1
Request: Form field 'greater IC50' accepts 1 or 2 ; which applies? Please reply using the label of the selected record.
Result: 1

====

biological target: EGFR Del19/T790M/C797S (Homo sapiens, UniProt P00533, C797S/DEL746-750/T790M); assay: Biochemical EGFR kinase inhibition assay (Lance Ultra TR-FRET), triple mutant del19/T790M/C797S; conditions: Km ATP; read-out: IC50 Del19/T790M/C797S (nM) Km ATP
Sequence (P00533 with tags, fused parts or gaps DEL746-750/T790M/C797S): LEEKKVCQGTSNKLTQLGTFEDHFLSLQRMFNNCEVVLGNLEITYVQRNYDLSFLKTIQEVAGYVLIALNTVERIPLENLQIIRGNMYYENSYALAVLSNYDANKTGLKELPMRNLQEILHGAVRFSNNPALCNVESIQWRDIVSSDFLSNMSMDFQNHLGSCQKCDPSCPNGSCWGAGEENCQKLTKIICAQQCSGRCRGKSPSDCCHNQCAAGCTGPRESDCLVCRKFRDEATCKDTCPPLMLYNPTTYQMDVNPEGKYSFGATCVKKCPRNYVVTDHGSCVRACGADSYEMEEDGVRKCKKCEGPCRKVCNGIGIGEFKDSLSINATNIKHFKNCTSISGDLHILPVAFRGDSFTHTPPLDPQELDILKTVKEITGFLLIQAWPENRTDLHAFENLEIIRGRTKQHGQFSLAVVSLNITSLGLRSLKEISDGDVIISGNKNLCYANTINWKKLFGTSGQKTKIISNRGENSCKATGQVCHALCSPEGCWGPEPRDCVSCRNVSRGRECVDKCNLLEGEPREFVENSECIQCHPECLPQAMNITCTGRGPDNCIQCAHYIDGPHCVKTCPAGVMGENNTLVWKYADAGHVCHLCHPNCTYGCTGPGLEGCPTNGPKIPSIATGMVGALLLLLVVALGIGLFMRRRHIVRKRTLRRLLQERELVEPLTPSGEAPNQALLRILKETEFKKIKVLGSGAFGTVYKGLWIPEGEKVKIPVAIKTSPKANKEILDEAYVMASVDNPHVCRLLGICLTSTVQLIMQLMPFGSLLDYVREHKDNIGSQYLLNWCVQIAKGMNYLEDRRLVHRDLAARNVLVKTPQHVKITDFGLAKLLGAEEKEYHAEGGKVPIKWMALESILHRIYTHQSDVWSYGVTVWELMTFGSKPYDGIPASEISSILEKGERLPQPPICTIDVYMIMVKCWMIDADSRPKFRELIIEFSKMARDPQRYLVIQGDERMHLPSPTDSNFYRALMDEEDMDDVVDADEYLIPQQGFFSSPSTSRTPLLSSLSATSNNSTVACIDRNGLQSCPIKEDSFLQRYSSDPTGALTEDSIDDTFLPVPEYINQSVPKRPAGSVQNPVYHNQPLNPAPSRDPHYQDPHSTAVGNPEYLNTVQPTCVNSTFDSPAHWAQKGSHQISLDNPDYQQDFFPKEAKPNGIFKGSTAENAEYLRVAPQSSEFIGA
Measurement Kind: IC50 (nM)

Cn1cc(C#Cc2cnc(Nc3ccnc(-c4cnn(S(=O)(=O)C5CC5)c4)n3)cc2NC2CCCCC2)cn1 = 5.7
CC(C)n1cc(C#Cc2cnc(Nc3ccnc(-c4cnn(S(=O)(=O)C5CC5)c4)n3)cc2-c2cnn(C3CC3)c2)cn1 = 11.3
CN(CCO)c1cc(Nc2ccnc(-c3cnn(S(=O)(=O)C4CC4)c3)n2)ncc1C#Cc1cnn(CCF)c1 = 17.6
CN(C)Cc1ccc(CNc2cc(Nc3ccnc(-c4cnn(S(=O)(=O)C5CC5)c4)n3)ncc2C#Cc2cnn(C)c2)cc1 = 0.9
O=S(=O)(C1CC1)n1cc(-c2nccc(Nc3cc(-c4cnn(C5CC5)c4)c(C#Cc4cnn(CCF)c4)cn3)n2)cn1 = 5.5

(I) CN(C)C[C@H]1CC[C@H](COc2cc(Nc3ccnc(-c4cnn(S(=O)(=O)C5CC5)c4)n3)ncc2C#Cc2cnn(C)c2)CC1
(II) O=S(=O)(C1CC1)n1cc(-c2nccc(Nc3cc(N[C@H]4CCC[C@H](O)C4)c(C#Cc4cnn(C(F)(F)F)c4)cn3)n2)cn1
Request: Just tell me: smaller IC50 value, I or II ? Please reply using the label of the selected record.
Result: I
(I: 0.3 nM, II: 2.7 nM)

====

target: EGFR Del19/C797S (Homo sapiens, UniProt P00533, C797S/DEL746-750); experiment: Biochemical EGFR kinase inhibition assay (Lance Ultra TR-FRET), double mutant del19/C797S; conditions: IC50 Del19/C797S (nM), 100 μM ATP
Measurement Kind: IC50 (nM)

O=S(=O)(C1CC1)n1cc(-c2nccc(Nc3cc(N[C@H]4CC[C@@H](CO)CC4)c(C#Cc4cnn(CC(F)F)c4)cn3)n2)cn1 [Example 324] = 2

(A) CC1(CO)CCN(c2cc(Nc3ccnc(-c4cnn(S(=O)(=O)C5CC5)c4)n3)ncc2C#CC2(O)CCCOC2)CC1 (stereo not drawn) [Example 357]
(B) CN(C)CC1CCN(c2cc(Nc3ccnc(-c4cnn(S(=O)(=O)C5CC5)c4)n3)ncc2C#Cc2cnn(C)c2)CC1 [Example 295]
Request: Form field 'greater IC50' accepts A or B ; which applies? Please reply using the label of the selected record.
Result: B

====

biological target: EGFR wildtype (WT) (Homo sapiens); test: Biochemical EGFR kinase inhibition assay (Lance Ultra TR-FRET), wildtype; settings: ATP at Km; read-out: IC50 WT (nM), Km ATP
Measurement Kind: IC50 (nM)

// below: answered compounds
CC1(CO)CCN(c2cc(Nc3ccnc(-c4cnn(S(=O)(=O)C5CC5)c4)n3)ncc2C#Cc2cnn3c2CN(CC(F)F)CC3)CC1 [Example 151] = 29.4
O=S(=O)(C1CC1)n1cc(-c2nccc(Nc3cc(NC4CCC(CO)CC4)c(C#Cc4cnn(C5CC5(F)F)c4)cn3)n2)cn1 (stereo not shown) [Example 327] = 11.9
CC1(CO)CCN(c2cc(Nc3ccnc(-c4cnn(S(=O)(=O)C5CC5)c4)n3)ncc2C#CCC(F)(F)F)CC1 [Example 275] = 62.3
CN(C)CC1(F)CCN(c2cc(Nc3ccnc(-c4cnn(S(=O)(=O)C5CC5)c4)n3)ncc2C#Cc2cnn(C3CC3)c2)CC1 [Example 300] = 26.8

(A) CC1(CO)CCN(c2cc(Nc3ccnc(-c4cnn(S(=O)(=O)C5CC5)c4)n3)ncc2C#CCCF)CC1 [Example 276]
(B) CC1(CO)CCN(c2cc(Nc3ccnc(Nc4ccccc4S(C)(=O)=O)n3)ncc2C#Cc2cnn(C(F)F)c2)CC1 [Example 271]
Request: Just tell me: smaller IC50 value, A or B ? Please reply using the label of the selected record.
Result: A
(A: 7.5 nM, B: 411 nM)

====

target: EGFR wildtype (WT) (Homo sapiens, UniProt P00533); test: Biochemical EGFR kinase inhibition assay (Lance Ultra TR-FRET), wildtype; conditions: IC50 WT (nM), 100 μM ATP
Sequence (P00533 25-1210): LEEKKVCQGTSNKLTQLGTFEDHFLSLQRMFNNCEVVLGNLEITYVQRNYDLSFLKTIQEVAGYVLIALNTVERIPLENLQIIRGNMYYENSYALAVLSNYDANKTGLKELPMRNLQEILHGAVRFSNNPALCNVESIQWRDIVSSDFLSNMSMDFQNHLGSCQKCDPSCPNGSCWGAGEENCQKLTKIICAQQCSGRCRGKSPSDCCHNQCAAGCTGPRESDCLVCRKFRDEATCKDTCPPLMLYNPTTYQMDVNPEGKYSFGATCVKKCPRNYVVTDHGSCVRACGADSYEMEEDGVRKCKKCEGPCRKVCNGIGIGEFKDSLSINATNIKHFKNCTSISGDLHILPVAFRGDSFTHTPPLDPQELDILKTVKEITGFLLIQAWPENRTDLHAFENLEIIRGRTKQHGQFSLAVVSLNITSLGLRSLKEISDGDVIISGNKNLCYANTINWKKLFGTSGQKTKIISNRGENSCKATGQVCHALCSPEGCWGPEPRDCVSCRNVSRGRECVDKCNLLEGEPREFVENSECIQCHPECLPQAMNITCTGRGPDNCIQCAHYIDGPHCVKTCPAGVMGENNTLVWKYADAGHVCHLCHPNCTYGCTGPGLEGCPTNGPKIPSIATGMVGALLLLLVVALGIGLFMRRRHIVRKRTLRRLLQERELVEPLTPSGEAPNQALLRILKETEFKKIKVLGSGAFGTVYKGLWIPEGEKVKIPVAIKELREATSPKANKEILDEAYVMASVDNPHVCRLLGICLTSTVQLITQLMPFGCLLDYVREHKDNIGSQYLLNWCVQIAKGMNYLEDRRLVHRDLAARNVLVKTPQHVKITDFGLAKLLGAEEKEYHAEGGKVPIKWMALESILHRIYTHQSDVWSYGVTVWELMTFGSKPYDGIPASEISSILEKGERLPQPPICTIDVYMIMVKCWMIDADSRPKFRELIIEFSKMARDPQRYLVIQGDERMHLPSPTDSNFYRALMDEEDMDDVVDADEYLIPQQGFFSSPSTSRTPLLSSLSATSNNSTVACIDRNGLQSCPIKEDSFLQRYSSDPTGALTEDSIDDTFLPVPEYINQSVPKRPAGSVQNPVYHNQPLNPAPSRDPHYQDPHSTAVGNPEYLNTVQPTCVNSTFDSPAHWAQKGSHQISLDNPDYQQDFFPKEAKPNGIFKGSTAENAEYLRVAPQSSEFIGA
Measurement Kind: IC50

// below: answered molecules
Cc1nc(C#Cc2cnc(Nc3ccnc(-c4cnn(S(=O)(=O)C5CC5)c4)n3)cc2N2CCC(O)CC2)cs1 [Example 211] = > 10000 nM
CC1(CO)CCN(c2cc(Nc3ccnc(-c4cnn(S(=O)(=O)C5CC5)c4)n3)ncc2C#Cc2cnn(CC3COCCO3)c2)CC1 (stereo not drawn) [Example 242] = 2610 nM
O=C(N1CCC(C#Cc2cnc(Nc3ccnc(-c4cnn(S(=O)(=O)C5CC5)c4)n3)cc2NC2CCC(CO)CC2)C1)C(F)(F)F (stereo not drawn) [Example 408] = 6570 nM
O=S(=O)(C1CC1)n1cc(-c2nccc(Nc3cc(N[C@H]4CC[C@@H](O)CC4)c(C#CC4(O)CCCC4)cn3)n2)cn1 [Example 176] = > 10000 nM
O=S(=O)(C1CC1)n1cc(-c2nccc(Nc3cc(N[C@H]4CC[C@@H](O)CC4)c(C#Cc4ccc(CN5CCOCC5)cc4)cn3)n2)cn1 [Example 157] = > 10000 nM

Request: Quick one: give measured IC50 for CN(C)CCNC1CCN(c2cc(Nc3ccnc(-c4cnn(S(=O)(=O)C5CC5)c4)n3)ncc2C#Cc2ccn(C)n2)CC1 [Example 142]
Result: > 10000 nM

====

molecular target: EGFR L858R/T790M/C797S (Homo sapiens, UniProt P00533, C797S/L858R/T790M); assay: Biochemical EGFR kinase inhibition assay (Lance Ultra TR-FRET), triple mutant L858R/T790M/C797S; details: ATP at Km; read-out: IC50 L858R/T790M/C797S (nM), Km ATP
Sequence (P00533 25-1210 T790M/C797S/L858R): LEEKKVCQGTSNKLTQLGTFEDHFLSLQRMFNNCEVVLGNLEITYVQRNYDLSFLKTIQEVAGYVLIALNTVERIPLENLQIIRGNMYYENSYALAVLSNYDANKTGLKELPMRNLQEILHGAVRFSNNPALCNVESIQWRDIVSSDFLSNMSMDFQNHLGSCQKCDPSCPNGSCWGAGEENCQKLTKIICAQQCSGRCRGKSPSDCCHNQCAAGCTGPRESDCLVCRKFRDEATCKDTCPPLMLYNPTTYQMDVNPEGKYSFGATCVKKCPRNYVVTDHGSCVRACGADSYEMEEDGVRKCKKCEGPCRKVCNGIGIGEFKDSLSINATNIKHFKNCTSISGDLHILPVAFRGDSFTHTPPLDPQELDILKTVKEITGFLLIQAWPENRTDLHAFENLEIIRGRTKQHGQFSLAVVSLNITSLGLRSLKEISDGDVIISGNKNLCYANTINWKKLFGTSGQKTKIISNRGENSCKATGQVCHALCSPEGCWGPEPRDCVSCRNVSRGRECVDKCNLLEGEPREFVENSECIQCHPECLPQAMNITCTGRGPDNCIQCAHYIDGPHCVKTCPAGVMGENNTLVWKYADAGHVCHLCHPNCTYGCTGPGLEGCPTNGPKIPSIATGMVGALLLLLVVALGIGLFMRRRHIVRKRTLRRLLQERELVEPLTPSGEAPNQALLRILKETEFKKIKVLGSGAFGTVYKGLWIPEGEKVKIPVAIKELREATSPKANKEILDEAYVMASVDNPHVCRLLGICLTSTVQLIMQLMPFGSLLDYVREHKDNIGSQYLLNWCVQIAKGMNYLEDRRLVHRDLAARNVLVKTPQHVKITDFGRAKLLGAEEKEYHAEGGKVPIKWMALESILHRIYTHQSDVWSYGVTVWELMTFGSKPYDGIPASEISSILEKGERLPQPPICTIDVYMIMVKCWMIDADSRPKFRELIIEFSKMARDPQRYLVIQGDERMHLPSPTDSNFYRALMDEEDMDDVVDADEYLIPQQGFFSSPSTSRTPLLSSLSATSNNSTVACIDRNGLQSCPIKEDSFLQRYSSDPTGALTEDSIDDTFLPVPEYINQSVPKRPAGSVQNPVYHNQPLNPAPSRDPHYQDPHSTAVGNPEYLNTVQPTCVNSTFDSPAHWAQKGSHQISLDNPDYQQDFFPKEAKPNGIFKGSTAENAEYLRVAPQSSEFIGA
Measurement Kind: IC50 (nM)

// below: answered molecules
CN(C)S(=O)(=O)n1cc(-c2nccc(Nc3cc(N4CCC(C)(CO)CC4)c(C#Cc4cnn(C(F)(F)F)c4)cn3)n2)cn1 = 0.3
CC(C)(O)[C@H]1CC[C@@H](Nc2cc(Nc3ccnc(-c4cnn(S(=O)(=O)C5CC5)c4)n3)ncc2C#Cc2ccc(CN3CCOCC3)cc2)CC1 = 12.2
CC1(CO)CCN(c2cc(Nc3ccnc(-c4cnn(S(=O)(=O)C5CC5)c4)n3)ncc2C#CC2(O)CCOCC2)CC1 = 0.1

(I) CN(C)CC1(C)CCN(c2cc(Nc3ccnc(-c4cnn(S(=O)(=O)C5CC5)c4)n3)ncc2C#Cc2cnn(C)c2)CC1
(II) CC(C)Nc1cc(Nc2ccnc(-c3cnn(S(=O)(=O)C4CC4)c3)n2)ncc1C#CCN1CCS(=O)(=O)CC1
Request: Just tell me: smaller IC50 value, I or II ? Please reply using the label of the selected record.
Result: I
(I: 0.1 nM, II: 1.2 nM)

====

molecular target: EGFR L858R/C797S (Homo sapiens, UniProt P00533, C797S/L858R); experiment: Biochemical EGFR kinase inhibition assay (Lance Ultra TR-FRET), double mutant L858R/C797S; details: Km ATP; read-out: IC50 L858R/C797S (nM), Km ATP
Measurement Kind: IC50 (nM)

// below: answered compounds
CC1(CO)CCN(c2cc(Nc3ccnc(-c4cnn(S(=O)(=O)C5CC5)c4)n3)ncc2C#CC2CCN(S(=O)(=O)C3CC3)C2)CC1 (stereo not shown) = 2.7
COC1(O)CCN(c2cc(Nc3ccnc(-c4cnn(S(=O)(=O)C5CC5)c4)n3)ncc2C#CC2CCN(C)C2)CC1 (stereo not shown) = 3.3

(I) O=S(=O)(C1CC1)N1CCC(C#Cc2cnc(Nc3ccnc(-c4cnn(S(=O)(=O)C5CC5)c4)n3)cc2N[C@H]2CC[C@@H](O)CC2)CC1
(II) CNCC1(F)CCN(c2cc(Nc3ccnc(-c4cnn(S(=O)(=O)C5CC5)c4)n3)ncc2C#Cc2cnn(C)c2)CC1
Request: Form field 'greater IC50' accepts I or II ; which applies? Please reply using the label of the selected record.
Result: I
(I: 19.2 nM, II: 5.5 nM)

Origin of measurements: patent US11981658B2
